Target: HLA-DR DRB4*01:01 (Homo sapiens, UniProt P01903+P13762, G164S)
Assay: In vitro HLA binding assay with purified HLA-DR molecules
Conditions: purified HLA-DR molecule; high affinity binding = IC50 <1,000 nM
Ends that are not written are not given here.
Here, each record is paired with measured IC50 data.
Express it in nM; write the number only.

Give the measured IC50 of EPLIDVHDLISDMIK [EXP1-P10] .
162

Give the measured IC50 of SVFFLALFFIIFNKE [EXP1-P02] .
17400

Give the measured IC50 of KLATSVLAGLLGVVS [EXP1-P16] .
567

Give the measured IC50 of LGVVSTVLLGGVGLV [EXP1-P18] .
194

Give the measured IC50 of VLAGLLGVVSTVLLGGV [EXP1-P17] .
2390

Give the measured IC50 of RKSKYKLATSVLAGLL [EXP1-P15] .
230

Give the measured IC50 of KEEELVEVNKRKSKY [EXP1-P13] .
17900

Give the measured IC50 of GVGLVLYNTEKGRHP [EXP1-P20] .
81

Give the measured IC50 of NANPDADSESNGEPN [EXP1-P25] .
12000
